Values from patent US10456394B2

target: HDAC3/NcoR2 complex (Homo sapiens (Human)); test: HDAC enzyme activity inhibition assay, HDAC3; type: biochemical; details: Table 2; mean of two experiments
Sequence (O15379 whole entry): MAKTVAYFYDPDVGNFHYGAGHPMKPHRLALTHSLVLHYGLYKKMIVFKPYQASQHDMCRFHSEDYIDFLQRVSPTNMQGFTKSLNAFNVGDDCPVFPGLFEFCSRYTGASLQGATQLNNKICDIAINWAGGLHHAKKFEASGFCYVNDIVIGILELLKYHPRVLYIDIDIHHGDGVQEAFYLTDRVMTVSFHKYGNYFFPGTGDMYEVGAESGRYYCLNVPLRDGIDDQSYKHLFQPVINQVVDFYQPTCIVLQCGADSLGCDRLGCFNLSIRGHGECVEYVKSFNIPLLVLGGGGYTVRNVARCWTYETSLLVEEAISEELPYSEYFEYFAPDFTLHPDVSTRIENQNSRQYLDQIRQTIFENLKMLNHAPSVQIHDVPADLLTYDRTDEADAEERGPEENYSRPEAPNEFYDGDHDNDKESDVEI
Sequence (Q9Y618 395-489 partner): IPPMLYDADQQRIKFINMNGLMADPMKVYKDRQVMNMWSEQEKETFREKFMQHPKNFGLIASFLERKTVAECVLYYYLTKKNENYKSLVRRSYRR
measured quantity: IC50

Request: Find the recorded IC50 belonging to O=C(NO)c1ccc(CN2CCCc3cc(Cl)ccc32)cc1 and report it.
Result: > 30000 nM

====

target: UniProtKB Q969S8; test: HDAC enzyme activity inhibition assay, HDAC10; format: biochemical; conditions: Table 2; mean of two experiments
Sequence (Q969S8 whole entry): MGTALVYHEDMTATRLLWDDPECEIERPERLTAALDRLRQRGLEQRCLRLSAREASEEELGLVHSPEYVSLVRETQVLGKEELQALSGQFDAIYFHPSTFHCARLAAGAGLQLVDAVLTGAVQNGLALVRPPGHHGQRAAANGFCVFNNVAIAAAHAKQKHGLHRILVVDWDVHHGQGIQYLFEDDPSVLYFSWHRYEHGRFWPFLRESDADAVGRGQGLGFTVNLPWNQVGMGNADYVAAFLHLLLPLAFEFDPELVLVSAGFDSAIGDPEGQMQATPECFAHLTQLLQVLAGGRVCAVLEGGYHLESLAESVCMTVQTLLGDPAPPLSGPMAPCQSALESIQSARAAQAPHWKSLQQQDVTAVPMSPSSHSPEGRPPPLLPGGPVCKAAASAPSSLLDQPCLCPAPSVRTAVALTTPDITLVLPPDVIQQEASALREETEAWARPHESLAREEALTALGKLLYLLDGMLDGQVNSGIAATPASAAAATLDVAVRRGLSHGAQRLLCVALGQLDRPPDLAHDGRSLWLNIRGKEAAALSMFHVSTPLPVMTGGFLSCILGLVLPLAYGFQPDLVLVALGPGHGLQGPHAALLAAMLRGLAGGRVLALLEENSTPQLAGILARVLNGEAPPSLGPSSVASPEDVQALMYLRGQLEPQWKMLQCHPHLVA
measured quantity: IC50

Request: Find the recorded IC50 belonging to O=C(NO)c1ccc(CN2CCCc3cc(Cl)ccc32)cc1 [Example 2] and report it.
Result: > 30000 nM

====

molecular target: HDAC8 (Homo sapiens (Human))
Sequence (Q9BY41 whole entry): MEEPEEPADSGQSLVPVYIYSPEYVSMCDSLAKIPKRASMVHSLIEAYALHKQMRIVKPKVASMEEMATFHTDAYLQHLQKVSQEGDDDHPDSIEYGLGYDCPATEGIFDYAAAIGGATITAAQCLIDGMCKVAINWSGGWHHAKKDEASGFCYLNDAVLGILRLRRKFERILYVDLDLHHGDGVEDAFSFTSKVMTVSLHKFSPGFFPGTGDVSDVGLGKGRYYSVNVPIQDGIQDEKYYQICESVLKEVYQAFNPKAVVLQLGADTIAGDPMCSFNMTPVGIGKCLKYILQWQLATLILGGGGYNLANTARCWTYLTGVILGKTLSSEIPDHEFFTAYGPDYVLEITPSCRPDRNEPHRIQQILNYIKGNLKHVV
measured quantity: IC50 (µM)
API: value field is a number in µM; no unit string.

Request: Find the recorded IC50 belonging to O=C(NO)c1ccc(CN2CCCc3cc(Cl)ccc32)cc1 [Example 2] and report it.
Result: 3.34
